Attribution: ChEMBL document CHEMBL3988442

Biological target: Coenzyme A biosynthesis bifunctional protein CoaBC (Mycobacterium tuberculosis (strain ATCC 25618 / H37Rv))
Sequence (P9WNZ1 whole entry): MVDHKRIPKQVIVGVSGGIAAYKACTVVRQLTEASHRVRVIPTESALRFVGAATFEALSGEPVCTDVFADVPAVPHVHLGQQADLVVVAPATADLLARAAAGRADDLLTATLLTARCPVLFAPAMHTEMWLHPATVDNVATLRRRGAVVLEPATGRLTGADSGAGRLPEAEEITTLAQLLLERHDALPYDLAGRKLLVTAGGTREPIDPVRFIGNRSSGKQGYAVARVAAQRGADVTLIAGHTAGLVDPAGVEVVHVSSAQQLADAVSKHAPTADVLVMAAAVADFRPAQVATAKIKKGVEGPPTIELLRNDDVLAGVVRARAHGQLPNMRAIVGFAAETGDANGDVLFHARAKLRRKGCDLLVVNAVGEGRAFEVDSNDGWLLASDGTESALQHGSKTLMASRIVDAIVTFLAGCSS
Assay: Biomol Green assay for MtCoaBC inhibitor, OD650 read
Readout Label: IC50

Prompt line: Return IC50 (reported value) for this compound: `CN(Cc1nccs1)C1CCN(c2cccc(-c3cscn3)c2)CC1`
Response line: > 30.2 µM

Prompt line: Return IC50 (reported value) for this compound: Cc1c[nH]nc1C1CCN(C(=O)C2CCOCC2)C1 (centres undefined)
Response line: > 30.2 µM

Prompt line: Return IC50 (reported value) for this compound: `Cn1cccc1CN1CCc2ncnc(-c3cccnc3)c2CC1`
Response line: > 30.2 µM

Prompt line: Return IC50 (reported value) for this compound: `CCC(=O)NCCc1cc2nc(-c3ccncc3)ccn2n1`
Response line: > 30.2 µM

Prompt line: Return IC50 (reported value) for this compound: Cc1cc(CCC2CN(CC3(O)CCCCC3)CCO2)ncn1 (centres undefined)
Response line: > 30.2 µM

Prompt line: Return IC50 (reported value) for this compound: `CC(C)c1nc2cc(NC(=O)c3n[nH]c4c3CCC4)ccc2n1C`
Response line: > 30.2 µM

Prompt line: Return IC50 (reported value) for this compound: CN(C)C(=O)c1ccc(C(C(=O)O)N(C)Cc2ccccc2Cl)cc1 (centres undefined)
Response line: > 30.2 µM

----------
Assay: microbe, parasite or virus in culture
Conditions: Mycobacterium tuberculosis, 96 h, read-out: pIC50 (converted)
Readout Label: IC50 (µM)
State just the number; it will be interpreted in µM.

# count of solved cases: 2
- Compound: "c1cc2c(cc1CNc1nnc(C3CC3)o1)OCCO2"
  Readout Label: "IC50"
  Observed Measurement: 179
- Compound: "Cc1cccc(CN2CCN(C(=O)c3cc(C4CC4)[nH]n3)CC2)c1"
  Readout Label: "IC50"
  Observed Measurement: 25

Please examine the following record next.
Prompt line: Return IC50 (reported value) for this compound: CCCNc1nnc(SC2CCOC2)s1 (configuration not stated)
Response line: 70.9

----------
Test: microbe, parasite or virus in culture
Settings: Mycobacterium tuberculosis, 72 h, read-out: pIC50 (converted)
Readout Label: IC50

- Molecule: "CC(Cn1cccn1)NCc1csc(-c2ccc3c(c2)OCO3)n1 (configuration not stated)"
  Readout Label: "IC50"
  Observed Measurement: "1.35 µM"
- Molecule: "CC(C)c1nc(-c2cc(C(=O)NCCN(C)C)c3ccccn23)cs1.O=C(O)C(F)(F)F"
  Readout Label: "IC50"
  Observed Measurement: "> 50.1 µM"
- Molecule: "CC(C)N1[C@H](CN2CCCC2)C[C@@H]2CN(Cc3ccoc3)CC[C@@H]21"
  Readout Label: "IC50"
  Observed Measurement: "> 50.1 µM"
- Molecule: "Cc1ccc(F)cc1S(=O)(=O)N1C[C@H](C2CC2)[C@@H](N)C1"
  Readout Label: "IC50"
  Observed Measurement: "259 µM"
- Molecule: "COc1cc(-c2cccc3c2OC(CN)C3)cc(OC)c1OC (configuration not stated)"
  Readout Label: "IC50"
  Observed Measurement: "43.9 µM"

Prompt line: Return IC50 (reported value) for this molecule: `CCCn1nnnc1NCc1ccc(F)cc1`
Response line: 37.8 µM

Prompt line: Return IC50 (reported value) for this molecule: `CCCc1ccc(N2CCN(Cc3nc4ccccc4n3C)CC2)cc1`
Response line: 26 µM

Prompt line: Return IC50 (reported value) for this molecule: Cc1cccc(CNC(Cc2ccsc2)c2nc(C)c(C)s2)n1.Cl (configuration not stated)
Response line: 31.7 µM

Prompt line: Return IC50 (reported value) for this molecule: `CCNc1ccnc(C(=O)NCc2ccccc2)c1`
Response line: 169 µM

Prompt line: Return IC50 (reported value) for this molecule: `CCCNC(=O)c1cc(C(C)C)nc(N2CCCC2)n1`
Response line: 11.5 µM

Prompt line: Return IC50 (reported value) for this molecule: `CC(C)c1cccc(NC(=O)CN2CCC(O)CC2)c1`
Response line: 116 µM

----------
System: Plasmodium falciparum
Test: Calibr Malaria Delayed Death Assay SOP
Type: functional, organism-based
Settings: Plasmodium falciparum
Threshold 800 nM. IC50 below it: MET. IC50 at it or above: NOT MET.

- Compound: "Cc1ccc(CN2CCC3(CC2)CCN(Cc2ccco2)CC3)cc1.O=C(O)C(F)(F)F.O=C(O)C(F)(F)F"
  Assayed Target: "Plasmodium falciparum"
  Category: "MET"
- Compound: "Cc1ccc(C(CCNCCCN(C)C)C2CCOC(C)(C)C2)cc1.O=C(O)C(=O)O (stereo not given)"
  Assayed Target: "Plasmodium falciparum"
  Category: "MET"
- Compound: "COc1cccc(CNC(CN2CCN(C)CC2)c2ccccc2)c1 (stereo not given)"
  Assayed Target: "Plasmodium falciparum"
  Category: "MET"
- Compound: "CN[C@@H](C)C(=O)N(Cc1cccc(C)c1)Cc1ccccc1OC"
  Assayed Target: "Plasmodium falciparum"
  Category: "MET"
- Compound: "CCN1CCC2(CC1)CC(NCc1cccs1)c1ccccc1O2.O=C(O)C(F)(F)F.O=C(O)C(F)(F)F (stereo not given)"
  Assayed Target: "Plasmodium falciparum"
  Category: "MET"

Prompt line: Below 800 nM on IC50? Entry CSc1ccc(-c2nc(CN3CCC(CN)C3)c(C)o2)cc1 (stereo not given)
Response line: NOT MET

----------
IC50 values by entry
Target: Coenzyme A biosynthesis bifunctional protein CoaBC (Mycobacterium tuberculosis (strain ATCC 25618 / H37Rv))
Test: Biomol Green assay for MtCoaBC inhibitor, OD650 read

- Compound: "Cc1cnn(CC2CCCN2C(=O)c2cccc(S(C)(=O)=O)c2)c1 (stereo not given)"
  IC50: "> 30.2 µM"
- Compound: "CN(Cc1cccnc1)CC1CC12CCN(Cc1nccs1)CC2 (stereo not given)"
  IC50: "> 50.1 µM"
- Compound: "Nc1nccnc1CC1CCCN(Cc2c[nH]c3ccccc23)C1 (stereo not given)"
  IC50: "> 30.2 µM"
- Compound: "Clc1cccc(Cl)c1CN(CCCN1CCOCC1)Cc1cccnc1"
  IC50: "> 30.2 µM"
- Compound: "c1csc(C2(NCc3csc(C4CC4)n3)CCCC2)n1"
  IC50: "> 30.2 µM"

Please examine the following record next.
Prompt line: Return IC50 (reported value) for this compound: `NC(=O)N1CCC2(CC1)CN(c1ccsc1)C(=O)CO2`
Response line: > 30.2 µM

----------
pIC50 values by entry
Molecular target: Tryptophan--tRNA ligase (Mycobacterium tuberculosis (strain ATCC 25618 / H37Rv), UniProt P9WFT3)
Sequence (P9WFT3 whole entry): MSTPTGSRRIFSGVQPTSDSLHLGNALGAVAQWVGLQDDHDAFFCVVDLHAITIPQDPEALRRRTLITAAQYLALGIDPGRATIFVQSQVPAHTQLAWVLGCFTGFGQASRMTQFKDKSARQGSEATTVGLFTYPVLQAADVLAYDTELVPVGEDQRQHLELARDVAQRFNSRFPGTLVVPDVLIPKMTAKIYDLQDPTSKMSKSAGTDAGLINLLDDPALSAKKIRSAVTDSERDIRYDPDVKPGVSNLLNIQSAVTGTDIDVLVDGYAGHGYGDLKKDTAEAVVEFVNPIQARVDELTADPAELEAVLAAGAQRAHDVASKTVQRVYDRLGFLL
Assay: Biochemical assay for Mt-TrpRS
pIC50: −log10 of the molar value.

- Compound: "CC(=O)N1CCN(CC2CCOc3ccccc3C2)CC1 (centres undefined)"
  Observed Measurement: "< 3.71"
- Compound: "Cc1ccc(S(=O)(=O)Nc2ccc(=O)n(C)c2)c(Br)c1"
  Observed Measurement: "< 3.71"
- Compound: "O=C(O)CCc1nc2nccc(-c3ccc(F)cc3)n2n1"
  Observed Measurement: "< 3.71"
- Compound: "Cc1ccc(C(=O)NS(=O)(=O)c2ccccc2F)c(=O)[nH]1"
  Observed Measurement: "< 3.71"
- Compound: "O=C(c1cncs1)N1CCC(c2cnccn2)CC1"
  Observed Measurement: "< 3.71"
- Compound: "Cc1nc(C2CCCN2C(=O)COc2ccccc2)ncc1C(N)=O (centres undefined)"
  Observed Measurement: "< 3.71"
- Compound: "COc1c(CNC2CCCN(c3ncccn3)C2)c(C(C)C)nn1C (centres undefined)"
  Observed Measurement: "< 3.71"
- Compound: "Cc1nccn1CC1CCCN(C(=O)c2cnn(C)c2)C1 (centres undefined)"
  Observed Measurement: "< 3.71"
- Compound: "COC(=O)c1ccc(CNCc2ccn(C)n2)cc1"
  Observed Measurement: "< 3.71"
- Compound: "OC1CCCN(Cc2ccnc(-c3cccnc3)n2)C1 (centres undefined)"
  Observed Measurement: "< 3.71"

Prompt line: Return pIC50 (reported value) for this compound: CC(=O)N1CCCC(c2ccnc(N(C)C)n2)C1 (centres undefined)
Response line: < 3.71

Prompt line: Return pIC50 (reported value) for this compound: `CCCS(=O)(=O)N1C[C@@H](c2ccccc2)[C@@]2(CCNC2=O)C1`
Response line: < 3.71

Prompt line: Return pIC50 (reported value) for this compound: `CCN1CC[C@@H]2OC[C@H](C(=O)NCc3cccs3)C[C@@H]2C1`
Response line: < 3.71

Prompt line: Return pIC50 (reported value) for this compound: `O=C1NCC[C@]12CN(Cc1ccco1)C[C@H]2c1ccccc1`
Response line: < 3.71

Prompt line: Return pIC50 (reported value) for this compound: CCCC(=O)N1CCCCC1c1nccc(C)n1 (centres undefined)
Response line: < 3.71

Prompt line: Return pIC50 (reported value) for this compound: CC(=O)NC(=O)C1(CCCc2ccncc2)CCN1 (centres undefined)
Response line: < 3.71

Prompt line: Return pIC50 (reported value) for this compound: `O=C(CN1CCc2ccccc21)Nc1ccc(OC(F)F)cc1`
Response line: < 3.71

Prompt line: Return pIC50 (reported value) for this compound: CCC(CC#N)n1ccc(C(F)(F)F)n1 (centres undefined)
Response line: < 3.71

Prompt line: Return pIC50 (reported value) for this compound: Cc1nc(O)cc(C2CCN(Cc3ccc(F)c(F)c3)C2)n1 (centres undefined)
Response line: < 3.71

Prompt line: Return pIC50 (reported value) for this compound: O=C(c1cnccn1)N1CCC2(CCCN(Cc3ccoc3)C2)C1 (centres undefined)
Response line: < 3.71

Prompt line: Return pIC50 (reported value) for this compound: Cn1nccc1CCC(=O)N1CCCC(Cc2cccnc2)C1 (centres undefined)
Response line: < 3.71

Prompt line: Return pIC50 (reported value) for this compound: `Nc1cnc(-c2ccc(F)cc2Cl)cn1`
Response line: < 3.71

Prompt line: Return pIC50 (reported value) for this compound: CSCC(C)(O)CNc1ncccc1I (centres undefined)
Response line: < 3.71

Prompt line: Return pIC50 (reported value) for this compound: `Cc1cc(C)c(CNC(=O)NCc2nnc3n2CCC3)c(=O)[nH]1`
Response line: < 3.71
